Data credit: paper PMC4456413

target: T. cruzi TR (Trypanosoma cruzi); construct: made in house; test: Ki determination and inhibition type on TR; format: biochemical; conditions: 60-200 μM TS2; two independent experiments; read-out: Ki, assumed inhibitor type noncompetitive
Sequence (P28593 whole entry): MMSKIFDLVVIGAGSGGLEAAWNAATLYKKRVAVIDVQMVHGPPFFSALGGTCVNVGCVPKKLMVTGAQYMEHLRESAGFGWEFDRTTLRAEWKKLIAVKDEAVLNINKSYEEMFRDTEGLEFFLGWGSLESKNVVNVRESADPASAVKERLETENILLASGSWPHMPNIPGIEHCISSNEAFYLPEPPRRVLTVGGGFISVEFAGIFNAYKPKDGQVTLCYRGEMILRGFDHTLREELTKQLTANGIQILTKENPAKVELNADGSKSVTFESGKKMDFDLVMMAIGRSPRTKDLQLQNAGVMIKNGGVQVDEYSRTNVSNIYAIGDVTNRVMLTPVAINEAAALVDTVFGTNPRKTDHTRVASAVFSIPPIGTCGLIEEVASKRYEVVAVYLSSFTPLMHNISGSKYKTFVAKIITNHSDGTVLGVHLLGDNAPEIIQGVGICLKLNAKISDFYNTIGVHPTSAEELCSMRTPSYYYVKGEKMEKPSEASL
recorded.metric: Ki (nM)
Give bare numbers, in nM.

Could you report Ki for every entry in the following list?
1. O=[N+]([O-])c1c(Cl)cc(Cl)c2nsnc12
2. O=C(Nc1ccccc1)OCCSc1ccc([N+](=O)[O-])c2nonc12
3. NS(=O)(=O)c1ccc(Nc2cc(Cl)c3nonc3c2[N+](=O)[O-])cc1
4. O=[N+]([O-])c1c(Sc2ncnc3ccccc23)cc(Cl)c2nsnc12

Response:
1: 910; 2: 330; 3: 1110; 4: 1300

---

biological target: T. cruzi TR (Trypanosoma cruzi)
Lab note: compare IC50 with 600 nM, writing Satisfied if less and Not satisfied if equal or more.

Illustrative cases are given below, each with its answer.
> print(dat)
                                   molecule  discrete.label
1  O=[N+]([O-])c1c(Sc2ncnc3ccccc23)cc(Cl)c2nsnc12       Satisfied
2  NS(=O)(=O)c1ccc(Nc2cc(Cl)c3nonc3c2[N+](=O)[O-])cc1       Satisfied
3  CCN(CC)CCCC(C)Nc1c2ccc(Cl)cc2nc2ccc(OC)cc12 (stereo not drawn) [Mepacrine, reference compound]   Not satisfied
4  O=C(Nc1ccccc1)OCCSc1ccc([N+](=O)[O-])c2nonc12       Satisfied

Now turn to the next molecule.
Request: Threshold test, IC50 < 600 nM: [H]/N=C(\N/C(=N/[H])NCCCCCCNC(=N)NC(=N)Nc1ccc(Cl)cc1)Nc1ccc(Cl)cc1 [Chlorhexidine, reference compound]
Response: Not satisfied

---

Exercise: state measured Ki (Fig 7, uncompetitive mode of inhibition assumed) for each of the compounds provided.
target: T. cruzi TR (Trypanosoma cruzi); construct: made in house; assay: Ki determination and inhibition type on TR; type: biochemical; settings: mean of two independent experiments; no unit printed in the figure; in µM
Answers are plain numbers.

> print(dat)
                                   compound  readout.number
1  O=C(Nc1ccccc1)OCCSc1ccc([N+](=O)[O-])c2nonc12 [Compound 1]            0.23
2  O=[N+]([O-])c1c(Cl)cc(Cl)c2nsnc12 [Compound 3]            0.64
3  NS(=O)(=O)c1ccc(Nc2cc(Cl)c3nonc3c2[N+](=O)[O-])cc1 [Compound 4]            0.80

Request: // returns reported Ki (Fig 7, uncompetitive mode of inhibition assumed) for input O=[N+]([O-])c1c(Sc2ncnc3ccccc23)cc(Cl)c2nsnc12 [Compound 2]
Response: 0.88

---

target: T. cruzi TR (Trypanosoma cruzi); construct: made in house; test: Ki determination and inhibition type on TR; type: biochemical; conditions: HTS format; Ki ± SD (n = 3); Table 1; read-out: Ki Measured
recorded.metric: pKi
Numbers only, as −log10 of the molar value.

> print(dat)
                                   compound              experimental.system  readout.number
1  [H]/N=C(\N/C(=N/[H])NCCCCCCNC(=N)NC(=N)Nc1ccc(Cl)cc1)Nc1ccc(Cl)cc1 [Chlorhexidine, reference compound]  T. cruzi TR (Trypanosoma cruzi)            5.40

Now, please, on to the next compound.
Request: // returns reported pKi for input CCN(CC)CCCC(C)Nc1c2ccc(Cl)cc2nc2ccc(OC)cc12 (centres unmarked) [Mepacrine, reference compound]
Response: 4.70

---

system: bloodstream T. brucei wild-type cells; assay: EC50 determination by ATPlite 1step assay, wild-type cells; assay type: cell-based; settings: Trypanosoma brucei; 72 h; cell type not given; read-out: EC50 after 72 h (ATPlite)
recorded.metric: EC50 (µM)
One number for each entry, in µM.

Request: // returns reported EC50 for input `O=[N+]([O-])c1c(Sc2ncnc3ccccc23)cc(Cl)c2nsnc12`
Response: 58

---

system: bloodstream T. brucei wild-type cells; assay: EC50 determination by ATPlite 1step assay, wild-type cells; assay type: cell-based; conditions: Trypanosoma brucei; ATPlite; 72 h; series containing up to 150 μM compound = 1.5% DMSO, which affects cell viability; read-out: EC50 72 h, Wild-type cells
recorded.metric: EC50 (µM)
Give bare numbers, in µM.

Request: // returns reported EC50 for input O=[N+]([O-])c1c(Sc2ncnc3ccccc23)cc(Cl)c2nsnc12 [Compound 2]
Response: 55.9

---

target: T. cruzi TR (Trypanosoma cruzi); construct: made in house; assay: Ki determination and inhibition type on TR; type: biochemical; details: 60-200 μM TS2; two independent experiments; read-out: Ki, assumed inhibitor type competitive
recorded.metric: Ki (nM)
One number for each entry, in nM.

Solved cases (3 shown):
> print(dat)
                           structure.smiles  output.unit  readout.number
1  O=C(Nc1ccccc1)OCCSc1ccc([N+](=O)[O-])c2nonc12           nM              60
2  O=[N+]([O-])c1c(Sc2ncnc3ccccc23)cc(Cl)c2nsnc12           nM             260
3  NS(=O)(=O)c1ccc(Nc2cc(Cl)c3nonc3c2[N+](=O)[O-])cc1           nM             190

Now, please, on to the next molecule.
Request: Query Ki on T. cruzi TR (Trypanosoma cruzi) for `O=[N+]([O-])c1c(Cl)cc(Cl)c2nsnc12`
Response: 150

---

target: T. cruzi TR (Trypanosoma cruzi); construct: made in house; experiment: Ki determination and inhibition type on TR; format: biochemical; conditions: three independent experiments; fitted to the relevant binding model; read-out: measured Ki (Lineweaver-Burk plots, Fig 3)
recorded.metric: pKi
One number for each entry, as −log10 of the molar value.

Request: // returns reported pKi for input CCN(CC)CCCC(C)Nc1c2ccc(Cl)cc2nc2ccc(OC)cc12 (stereo not shown) [Mepacrine, reference compound]
Response: 4.68

---

target: T. cruzi TR (Trypanosoma cruzi); construct: made in house; assay: Ki determination and inhibition type on TR; type: biochemical; settings: 60-200 μM TS2; two independent experiments
Exercise: state measured Ki, assumed inhibitor type uncompetitive for each of the compounds provided.
Numbers only, in nM.

Solved cases (3 shown):
> print(dat)
                                   compound                           recorded.metric  output.unit  readout.number
1  O=C(Nc1ccccc1)OCCSc1ccc([N+](=O)[O-])c2nonc12 [Compound 1]  Ki, assumed inhibitor type uncompetitive           nM             230
2  NS(=O)(=O)c1ccc(Nc2cc(Cl)c3nonc3c2[N+](=O)[O-])cc1 [Compound 4]  Ki, assumed inhibitor type uncompetitive           nM             800
3  O=[N+]([O-])c1c(Sc2ncnc3ccccc23)cc(Cl)c2nsnc12 [Compound 2]  Ki, assumed inhibitor type uncompetitive           nM             880

Now, please, on to the next compound.
Request: // returns reported Ki, assumed inhibitor type uncompetitive for input O=[N+]([O-])c1c(Cl)cc(Cl)c2nsnc12 [Compound 3]
Response: 640
